Parameter melting point: see the listing below.

COMPOUND	melting point
CCCCN1CC(=O)N2[C@@H](c3ccsc3)c3[nH]c4ccccc4c3C[C@@H]2C1=O (relative stereo) [Example 58]	236 to 239 °C
CC(C)N1CC(=O)N2[C@@H](c3ccc4c(c3)CCCC4)c3[nH]c4ccccc4c3C[C@@H]2C1=O (relative stereo) [Example 48]	244 to 246 °C

With those in mind, consider the next compound.
# compound O=C1[C@H]2Cc3c([nH]c4ccccc34)[C@H](c3ccc4c(c3)OCO4)N2C(=O)CN1Cc1cccnc1 (relative stereo) [Example 11] ; its melting point = 292 to 293 °C
